# Tested on: Viola tricolor (VIOTR)
# Procedure Details: Pre-emergence herbicidal action against VIOTR
# Type: in vivo
# Condition Set: dosage 80 g/ha
Assay Endpoint: Pre-emergence action against VIOTR in % (%)

> print(dat)
                                   molecule                           assay.endpoint  unit.label  value.measured
1  C[C@@H](Oc1nn(-c2nc(F)ccc2F)c(-c2ccc(F)nc2)c1C1CC1)C(=O)O  Pre-emergence action against VIOTR in %           %              90
2  COC(=O)[C@@H](C)Oc1nn(-c2cccnc2F)c(-c2ccc(F)nc2)c1Br  Pre-emergence action against VIOTR in %           %              80
3  COC(=O)C(C)COC(=O)[C@@H](C)Oc1nn(-c2ccccn2)c(-c2cncc(F)c2)c1Br (some centres unmarked)  Pre-emergence action against VIOTR in %           %             100
4  CCOC(=O)[C@@H](C)Oc1nn(-c2ncccc2Cl)c(-c2ccc(F)nc2)c1Br  Pre-emergence action against VIOTR in %           %             100
5  O=C(O)COc1nn(-c2ncccc2F)c(-c2ccc(F)nc2)c1Br [Example I-08]  Pre-emergence action against VIOTR in %           %             100
6  CC(C)N(C)S(=O)(=O)NC(=O)COc1nn(-c2ncccc2F)c(-c2ccc(F)nc2)c1Br  Pre-emergence action against VIOTR in %           %              90
7  COC(=O)CNC(=O)[C@@H](C)Oc1nn(-c2ccccn2)c(-c2ccc(F)nc2)c1Cl  Pre-emergence action against VIOTR in %           %             100
8  O=C(O)CSc1nn(-c2ccccn2)c(-c2cncc(Cl)c2)c1Br  Pre-emergence action against VIOTR in %           %             100

----------
# Tested on: Lolium rigidum (LOLRI)
# Procedure Details: Pre-emergence herbicidal action against LOLRI
# Assay type: in vivo
# Condition Set: dosage 320 g/ha
Property: Pre-emergence action against LOLRI in %; scope: individual compounds
Assay Endpoint: Pre-emergence action against LOLRI in % (%)

> print(dat)
                                   compound  value.measured
1  COC(=O)[C@@H](C)Oc1nn(-c2ccc(F)cn2)c(-c2ccc(F)nc2)c1Br [Example I-11]             100
2  COC(=O)CCOC(=O)COc1nn(-c2ccccn2)c(-c2cncc(F)c2)c1Cl [Example I-75]             100
3  O=C(COc1nn(-c2ccccn2)c(-c2ccc(F)nc2)c1Br)OCC1CCCO1 (stereo not drawn) [Example I-93]             100

----------
# System: Verconica persica (VERPE)
# Procedure Details: Post-emergence herbicidal action against VERPE
# Type: in vivo
# Condition Set: 320 g/ha, VERPE
# Description: Seeds of monocotyledonous and dicotyledonous weeds and crop plants are placed in sandy loam in plastic or organic planting pots, covered with soil and cultivated in a greenhouse under controlled growth conditions. 2 to 3 weeks after sowing, the test plants are treated at the one-leaf stage. […]
Assay Endpoint: Post-emergence action against VERPE in % (%)

> print(dat)
                                chem.smiles                            assay.endpoint  value.measured
1  C[C@@H](Oc1nn(-c2ccccn2)c(-c2ccc(F)nc2)c1Cl)C(=O)NCC(=O)O  Post-emergence action against VERPE in %              90
2  C#CCOC(=O)COc1nn(-c2ccccn2)c(-c2ccc(F)nc2)c1Br  Post-emergence action against VERPE in %              80
3  C=C(COC(=O)[C@@H](C)Oc1nn(-c2ccccn2)c(-c2ccc(F)nc2)c1Cl)C(=O)OC  Post-emergence action against VERPE in %              80
4  CCOC(=O)[C@@H](C)Oc1nn(-c2ncccc2Cl)c(-c2ccc(F)nc2)c1Br  Post-emergence action against VERPE in %              90
5  CCOC(=O)[C@@H](C)Oc1nn(-c2ncccc2F)c(-c2cncc(F)c2)c1Br  Post-emergence action against VERPE in %              90
6  C[C@H](NC(=O)COc1nn(-c2ccccn2)c(-c2cncc(F)c2)c1Br)C(=O)O  Post-emergence action against VERPE in %              80
7  O=C(O)COc1nn(-c2ncccc2C(F)(F)F)c(-c2ccc(F)nc2)c1Cl  Post-emergence action against VERPE in %              90
8  O=C(O)COc1nn(-c2nc(F)ccc2F)c(-c2ccc(F)nc2)c1C1CC1  Post-emergence action against VERPE in %              80
